Test system: HCT-116 colon carcinoma
PROTOCOL_TEXT: Cell Proliferation Inhibition Assay (14C-thymidine incorporation), HCT116
Type: cell-based
CONDITION_SET: Homo sapiens, HCT116 cells
Experimental: The ability of a test compound to inhibit unregulated cell proliferation was determined by measuring incorporation of ^14C-labelled thymidine into newly synthesized DNA within cell lines derived from carcinomas originating from several tissues. Accordingly, the anti-proliferative effect of a compound on cells with a variety of phenotypes may be determined. […] The carcinoma cells were trypsinized and counted. […]
PROPERTY_LABEL: IC50

// known answers, use as guide
Cc1c(C(=O)NCCCN2CCOCC2)sc2ncnc(Nc3ccc(NC(=O)c4ccccc4)cc3)c12 ... > 10 µM
Cc1cc2c(F)c(Oc3ncnc4sc(C(=O)NCCN5CCCCC5)c(C)c34)ccc2[nH]1 ... 9.4 µM
COCCNC(=O)c1sc2ncnc(Oc3ccc4[nH]c(C)cc4c3F)c2c1C ... > 10 µM
Cc1cc2c(F)c(Oc3ncnc4sc(C(=O)NCCN5CCOCC5)c(C)c34)ccc2[nH]1 ... > 10 µM
Cc1c(C(=O)NCCN2CCOCC2)sc2ncnc(Nc3ccc(NC(=O)c4ccccc4)cc3)c12 ... > 10 µM
Cc1c(C(=O)NCCN2CCOCC2)sc2ncnc(Nc3ccc(Oc4ccccc4)cc3)c12 ... > 10 µM
Cc1c(C(=O)Nc2ccc(CN3CCOCC3)cc2)sc2ncnc(Nc3ccc(Oc4ccccc4)cc3)c12 ... 7.1 µM
Cc1cc2c(F)c(Oc3ncnc4sc(C(=O)Nc5ccc(CN6CCOCC6)cc5)c(C)c34)ccc2[nH]1 ... > 10 µM

Give its IC50 value. Item: `Cc1cc2c(F)c(Oc3ncnc4sc(C(=O)NCCN5CCCC5)c(C)c34)ccc2[nH]1`
22.3 µM
